- ASSAYED_TARGET: T1, biotinylated goat anti-human kappa light chain
- T1 construct: positive control of the ELISA
- TEST_METHOD_NOTES: ELISA, positive control; further: test concentration or dose not given here
MEASUREMENT_TYPE: optical density (OD)
Just the number in OD, nothing appended.

Worked cases, optical density given:
367_G03 (antibody, V domains shown, Group II) VH: EVQLLESGGGLVQPGGSLRLSCAASGFTFDSYSMHWVRQAPGKGLEWVANINYNGGYTSYADSVKGRFTISRDNSKNTLYLQMNSLRAEDTAVYYCARAATWHDTHLDYWGQGTLVTVSS VL: DIQMTQSPSSLSASVGDRVTITCRASQSIVSYVNWYQQKPGKAPKLVIYAATSRHSGVPSRFSGSGSGTDFTLTISSLQPEDFATYYCQQSYDLPLTFGGGTKVEIK | 3.6
367_F06 (antibody, V domains shown, Group I) VH: EVQLLESGGGLVQPGGSLRLSCAASGFTFSSYGMNWVRQAPGKGLEWVSSINYNSGYTSYADSVKGRFTISRDNSKNTLYLQMNSLRAEDTAVYYCARAANWHDTALDYWGQGTLVTVSS VL: DIQMTQSPSSLSASVGDRVTITCRASQSISSYVNWYQQKPGKAPKLLIYAVTSRASGVPSRFSGSGSGTDFTLTISSLQPEDFATYYCQQSYDSPLTFGGGTKVEIK | 3.35
367_D11 (antibody, V domains shown, Group I) VH: EVQLLESGGGLVQPGGSLRLSCAASGFTFDSYGMHWVRQAPGKGLEWVSNINYNGGYKSYADSVKGRFTISRDNSKNTLYLQMNSLRAEDTAVYYCARAANWHDTALDYWGQGTLVTVSS VL: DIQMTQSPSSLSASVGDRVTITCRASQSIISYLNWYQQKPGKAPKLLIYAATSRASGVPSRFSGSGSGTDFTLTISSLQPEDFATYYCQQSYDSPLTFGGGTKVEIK | 3.39
365_F02 (antibody, V domains shown, Group III) VH: EVQLLESGGGLVQPGGSLRLSCAASGFTFSSYSMNWVRQAPGKGLEWVSGINYNGGYKGYADSVKGRFTISRDNSKNTLYLQMNSLRAEDTAVYYCARGANWHDTHLDYWGQGTLVTVSS VL: DIQMTQSPSSLSASVGDRVTITCRASQSILTYVNWYQQKPGKAPKLLIYAATSRHSGVPSRFSGSGSGTDFTLTISSLQPEDFATYYCQQSYDTPLTFGGGTKVEIK | 3.4

Now for another entry.
Summary for this binder, 368_B11 (antibody, V domains shown, Group I) VH: EVQLLESGGGLVQPGGSLRLSCAASGFTFDSYGMHWVRQAPGKGLEWVSGINYNGGYKSYADSVKGRFTISRDNSKNTLYLQMNSLRAEDTAVYYCARAANWHDTHLDYWGQGTLVTVSS VL: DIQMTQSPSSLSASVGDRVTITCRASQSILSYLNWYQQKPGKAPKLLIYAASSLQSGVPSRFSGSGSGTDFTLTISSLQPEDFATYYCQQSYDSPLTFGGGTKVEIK : optical density is 3.61

Cited source for all entries: patent US20210380703A1
